List of IC50 tested on human 11β-HSD1 (Homo sapiens, UniProt P28845).
Sequence (P28845 whole entry): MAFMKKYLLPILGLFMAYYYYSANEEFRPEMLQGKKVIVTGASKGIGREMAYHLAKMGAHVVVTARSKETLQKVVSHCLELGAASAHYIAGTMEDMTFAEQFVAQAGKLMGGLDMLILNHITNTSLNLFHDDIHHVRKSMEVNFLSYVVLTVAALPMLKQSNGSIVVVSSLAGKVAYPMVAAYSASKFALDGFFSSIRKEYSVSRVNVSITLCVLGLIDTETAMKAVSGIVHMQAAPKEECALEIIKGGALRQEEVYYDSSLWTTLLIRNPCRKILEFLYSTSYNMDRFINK

>>> observed_measurement("CS(=O)(=O)N1Cc2ccccc2C2(CCN(C(=O)CCc3ccccc3C(F)(F)F)CC2)C1")
"< 100 nM"

Hi team, please reply with IC50 for each item in this list.
1. O=C(O)CC1CC2(CCN(C(=O)Cc3ccc(F)cc3C(F)(F)F)CC2)c2c(Cl)cccc21 (centres unmarked)
2. CN1C(=O)C2(CCN(C(=O)/C=C/c3ccccc3C(F)(F)F)CC2)c2ccccc21
3. CN1C(=O)c2cccc(Cl)c2C12CCN(C(=O)CCc1ccccc1C(F)(F)F)CC2
4. CC(C)(C)OC(=O)N1Cc2ccccc2C2(CCN(C(=O)CCc3ccccc3C(F)(F)F)CC2)C1
5. CNC(=O)c1ccc2c(c1)C1(CCN(C(=O)/C=C/c3ccccc3C(F)(F)F)CC1)C(=O)N2C
6. COc1ccc2c(c1)CCNC21CCN(C(=O)CCc2ccccc2C)CC1
7. O=C1NC2(CCN(C(=O)CCc3ccccc3C(F)(F)F)CC2)c2c(Br)cccc21

1: < 100 nM; 2: < 100 nM; 3: < 100 nM; 4: 100 to 1000 nM; 5: 100 to 1000 nM; 6: 100 to 1000 nM; 7: < 100 nM

---

Molecular target: human 11β-HSD1 (Homo sapiens)
Construct: expressed in transfected cells; host or cells: CHO cells (microsomes)
Test: Inhibition of microsomal preparation of 11β-HSD1 (SPA, Biological Test Example 1)
Type: biochemical
Settings: 111 nM
Answer each item with its documented inhibition at 0.111 µM.

Hi team, please reply with inhibition at 0.111 µM for each item in this list.
1. Cc1ccccc1CNC(=O)N1CCC2(CC1)CC(CC(=O)N1CCNCC1)c1cccc(Br)c12 (stereo not shown) [EXAMPLE 90]
2. COc1ccc2c(c1)CCNC21CCN(C(=O)Cc2ccccc2C(F)(F)F)CC1 [EXAMPLE 44]

1. 52.4%
2. 69.9%

---

Target: human 11β-HSD1 (Homo sapiens)
Construct: expressed in transfected cells; host or cells: CHO cells (microsomes)
Test: Inhibition of microsomal preparation of 11β-HSD1 (SPA, Biological Test Example 1)
Type: biochemical
Conditions: 111 nM
measure-name: inhibition at 0.111 µM (%)
Answers are plain numbers, in %.

Observe how each entry below is paired with its result.
>>> observed_measurement("O=C1NC2(CCN(C(=O)CCc3ccccc3C(F)(F)F)CC2)c2c(Br)cccc21")
93.9
>>> observed_measurement("NC1CC2(CCN(C(=O)Cc3ccccc3C(F)(F)F)CC2)c2c(Br)cccc21 (racemic)")
78.6
>>> observed_measurement("O=C(O)CC1CC2(CCN(C(=O)CCc3ccccc3C(F)(F)F)CC2)c2c(Cl)cccc21 (stereo not shown)")
95.4
>>> observed_measurement("O=C1NC2(CCN(C(=O)/C=C/c3ccccc3C(F)(F)F)CC2)c2c(Cl)cc(Cl)cc21")
94.2
>>> observed_measurement("NC(=O)CC1CC2(CCN(C(=O)CCc3ccccc3C(F)(F)F)CC2)c2c(Cl)cccc21 (stereo not shown)")
95.1
>>> observed_measurement("CCOC(=O)CC1CC2(CCN(C(=O)NCc3ccccc3OCC)CC2)c2c(Br)cccc21 (stereo not shown)")
28.6

Hi team, please reply with inhibition at 0.111 µM for each item in this list.
1. CCOC(=O)CC1CC2(CCN(C(=O)NCc3ccccc3S(C)(=O)=O)CC2)c2c(Br)cccc21 (stereo not shown)
2. O=C(O)CC1CC2(CCN(C(=O)NCc3cc(F)c(F)cc3F)CC2)c2c(Br)cccc21 (stereo not shown)
3. CS(=O)(=O)N1Cc2ccccc2C2(CCN(C(=O)CCc3ccccc3C(F)(F)F)CC2)C1
4. CCOC(=O)CC1CC2(CCN(C(=O)N(C)Cc3ccccc3F)CC2)c2c(Br)cccc21 (stereo not shown)
5. CN1C(=O)C2(CCN(C(=O)/C=C/c3ccccc3C(F)(F)F)CC2)c2cc(C(N)=O)ccc21
6. O=C(O)CC1CC2(CCN(C(=O)/C=C/c3cccc(Cl)c3Cl)CC2)c2c(Cl)cccc21 (racemic)
7. COc1ccc2c(c1)CCNC21CCN(C(=O)CCc2ccccc2C(F)(F)F)CC1
8. O=C1NC2(CCN(C(=O)/C=C/c3ccccc3C(F)(F)F)CC2)c2c(Br)cccc21

1. 18.5
2. 10.9
3. 92.6
4. 79.4
5. 41.4
6. 77.8
7. 87.2
8. 92.7

Hi team, please reply with inhibition at 0.111 µM for each item in this list.
1. O=C(CCc1ccccc1C(F)(F)F)N1CCC2(CC1)CC(O)c1cccc(Br)c12 (stereo not shown)
2. O=C(/C=C/c1ccccc1C(F)(F)F)N1CCC2(CC1)CNCc1ccccc12

100
87.4

---

Target: human 11β-HSD1 (Homo sapiens, UniProt P28845)
Construct: expressed in transfected cells; host or cells: CHO cells (microsomes)
Test: Inhibition of microsomal preparation of 11β-HSD1 (SPA, Biological Test Example 1)
Format: biochemical
Conditions: 111 nM
measure-name: inhibition at 0.111 µM (%)
Answers are plain numbers, in %.

Observe how each entry below is paired with its result.
>>> observed_measurement("NC1CC2(CCN(C(=O)CCc3ccccc3C(F)(F)F)CC2)c2c(Br)cccc21 (stereo not shown) [EXAMPLE 66]")
92.1
>>> observed_measurement("Cc1ccc2c(c1)C(CC(=O)O)CC21CCN(C(=O)/C=C/c2ccccc2C(F)(F)F)CC1 (racemic) [EXAMPLE 12]")
90.3
>>> observed_measurement("CCN1C(=O)C2(CCN(C(=O)/C=C/c3ccccc3C(F)(F)F)CC2)c2cc(C(=O)OC)ccc21 [EXAMPLE 40]")
71.2

Item under review: CN1C(=O)C2(CCN(C(=O)/C=C/c3ccccc3C(F)(F)F)CC2)c2cc(C#N)ccc21 [EXAMPLE 39] . Reported inhibition at 0.111 µM?
64.8

---

List of pIC50 tested on human 11β-HSD1 (Homo sapiens, UniProt P28845).
pIC50: −log10 of the molar value.

Observe how each entry below is paired with its result.
>>> observed_measurement("CN1C(=O)C2(CCN(C(=O)CCc3ccccc3C(F)(F)F)CC2)c2cc(C(N)=O)ccc21")
"6.00 to 7.00"
>>> observed_measurement("Cc1cccc(Cl)c1CNC(=O)N1CCC2(CC1)CC(CC(=O)O)c1cccc(Br)c12 (stereo not shown)")
"> 7.00"
>>> observed_measurement("CNC(=O)NC1CC2(CCN(C(=O)/C=C/c3ccccc3C(F)(F)F)CC2)c2c(Br)cccc21 (racemic)")
"> 7.00"
>>> observed_measurement("CS(=O)(=O)c1ccccc1CNC(=O)N1CCC2(CC1)CC(CC(=O)O)c1cccc(Br)c12 (stereo not shown)")
"6.00 to 7.00"
>>> observed_measurement("O=C(O)CC1CC2(CCN(C(=O)CCc3ccccc3C(F)(F)F)CC2)c2c(Cl)cccc21 (stereo not shown)")
"> 7.00"
>>> observed_measurement("NC1CC2(CCN(C(=O)/C=C/c3ccccc3C(F)(F)F)CC2)c2c(Br)cccc21 (racemic)")
"> 7.00"

Hi team, please reply with pIC50 for each item in this list.
1. CCOC(=O)CC1CC2(CCN(C(=O)NCc3ccccc3S(C)(=O)=O)CC2)c2c(Br)cccc21 (stereo not shown)
2. O=C1CC2(CCN(C(=O)/C=C/c3c(Cl)cccc3Cl)CC2)c2c(Br)cccc21
3. O=C1Cc2ccccc2C2(CCN(C(=O)/C=C/c3ccccc3C(F)(F)F)CC2)N1
4. O=C(O)CC1CC2(CCN(C(=O)/C=C/c3ccccc3C(F)(F)F)CC2)c2c(Br)cccc21 (single isomer, unassigned; isomer 1) [EXAMPLE 2.1]

1: 6.00 to 7.00; 2: > 7.00; 3: > 7.00; 4: > 7.00

Hi team, please reply with pIC50 for each item in this list.
1. CN(C)C(=O)c1ccc2c(c1)C1(CCN(C(=O)/C=C/c3ccccc3C(F)(F)F)CC1)C(=O)N2C
2. O=C1CC2(CCN(C(=O)/C=C/c3ccccc3C(F)(F)F)CC2)c2c(Br)cccc21

1. 6.00 to 7.00
2. > 7.00

Hi team, please reply with pIC50 for each item in this list.
1. O=C(O)CC1CC2(CCN(C(=O)/C=C/c3ccccc3C(F)(F)F)CC2)c2c(Br)cccc21 (single isomer, unassigned; isomer 2) [EXAMPLE 2.2]
2. Cc1ccccc1CNC(=O)N1CCC2(CC1)CC(CC(=O)O)c1cccc(Br)c12 (stereo not shown)
3. NC(=O)CC1CC2(CCN(C(=O)CCc3ccccc3C(F)(F)F)CC2)c2c(Cl)cccc21 (stereo not shown)
4. CN1C(=O)C2(CCN(C(=O)CCc3ccccc3C(F)(F)F)CC2)c2cc(C#N)ccc21

1. > 7.00
2. > 7.00
3. > 7.00
4. 6.00 to 7.00

---

Target: human 11β-HSD1 (Homo sapiens)
Construct: expressed in transfected cells; host or cells: CHO cells (microsomes)
Test: Inhibition of microsomal preparation of 11β-HSD1 (SPA, Biological Test Example 1)
Format: biochemical
Conditions: 111 nM
Answer each item with its documented inhibition at 0.111 µM.
Numbers only, in %.

Hi team, please reply with inhibition at 0.111 µM for each item in this list.
1. O=C(Cc1ccccc1C(F)(F)F)N1CCC2(CC1)C(=O)Nc1ccccc12
2. O=C(/C=C/c1ccccc1C(F)(F)F)N1CCC2(CC1)CC(O)c1cccc(Br)c12 (racemic)
3. CN1C(=O)c2ccccc2C12CCN(C(=O)CCc1ccccc1C(F)(F)F)CC2
4. CN1C(=O)C2(CCN(C(=O)Cc3ccccc3C(F)(F)F)CC2)c2ccccc21
5. O=C1NC2(CCN(C(=O)/C=C/c3ccccc3C(F)(F)F)CC2)c2c(Cl)cccc21
6. CN1C(=O)C2(CCN(C(=O)/C=C/c3ccccc3C(F)(F)F)CC2)c2cc(C(=O)NCCO)ccc21
7. CNC(=O)N1Cc2ccccc2C2(CCN(C(=O)CCc3ccccc3C(F)(F)F)CC2)C1
8. CCOC(=O)CC1CC2(CCN(C(=O)CCc3ccccc3C(F)(F)F)CC2)c2c(Br)cccc21 (stereo not shown)

1: 83.3; 2: 98.6; 3: 76.5; 4: 86.3; 5: 89.8; 6: 0.6; 7: 81.5; 8: 92.7

Hi team, please reply with inhibition at 0.111 µM for each item in this list.
1. COC(=O)c1ccc2c(c1)C1(CCN(C(=O)CCc3ccccc3C(F)(F)F)CC1)C(=O)N2C
2. CCOc1ccccc1CNC(=O)N1CCC2(CC1)CC(CC(=O)O)c1cccc(Br)c12 (stereo not shown)
3. O=C(O)CC1CC2(CCN(C(=O)/C=C/c3ccccc3C(F)(F)F)CC2)c2cc(F)ccc21 (racemic)
4. O=C(O)CC1CC2(CCN(C(=O)/C=C/c3ccccc3Cl)CC2)c2c(Cl)cccc21 (racemic)

[60, 42.6, 75.1, 85.5]

Hi team, please reply with inhibition at 0.111 µM for each item in this list.
1. CN1C(=O)C2(CCN(C(=O)CCc3ccccc3C(F)(F)F)CC2)c2cc(C#N)ccc21
2. COc1ccc2c(c1)CCNC21CCN(C(=O)/C=C/c2ccccc2C(F)(F)F)CC1
3. CN1C(=O)c2cccc(Cl)c2C12CCN(C(=O)NCc1ccccc1C(F)(F)F)CC2
4. Cc1ccccc1CNC(=O)N1CCC2(CC1)CC(CC(=O)N1CCN(C(=O)OC(C)(C)C)CC1)c1cccc(Br)c12 (stereo not shown)

51.4
94.6
46.8
66.2

# credit: patent US8383629B2
